# EXPERIMENT_SUMMARY: self-splicing fitness, log relative to wild type (ln ratio); higher = more splicing; Tetrahymena group I intron in knt gene, E. coli kanamycin selection, DiMSum; sequences stand for … in CUCUCU…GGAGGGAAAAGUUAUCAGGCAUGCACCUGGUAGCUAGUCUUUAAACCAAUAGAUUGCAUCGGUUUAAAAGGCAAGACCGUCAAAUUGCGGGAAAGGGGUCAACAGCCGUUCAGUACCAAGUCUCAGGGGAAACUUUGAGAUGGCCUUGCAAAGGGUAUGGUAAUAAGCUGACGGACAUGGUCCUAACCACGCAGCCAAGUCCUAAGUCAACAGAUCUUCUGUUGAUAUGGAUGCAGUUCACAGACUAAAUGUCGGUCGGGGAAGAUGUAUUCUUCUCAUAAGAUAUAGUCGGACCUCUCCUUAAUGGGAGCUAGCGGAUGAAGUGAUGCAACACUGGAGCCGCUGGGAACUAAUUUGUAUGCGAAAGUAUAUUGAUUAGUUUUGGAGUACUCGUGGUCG;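 further: selection with 25 µg/mL kanamycin versus none on LB agar overnight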
# ASSAY_CONDITIONS: 37 °C
Returns true if the recorded self-splicing fitness (ln) is greater than or equal to -0.1, and false otherwise.

Hi, just wondering whether `AACCAGCAAUAUUACGUCGG` shows self-splicing fitness (ln) of -0.1 or higher.
false

In plain terms: is recorded self-splicing fitness (ln) at least -0.1 for `ACGCAGCAAUAUUACGAGUC` ?
false

Decide: is the reported value of self-splicing fitness (ln) for `CAGAAGCAAUAUUACGACGG` equal to or greater than -0.1?
true

Kindly determine if self-splicing fitness (ln) recorded for `GUACAGCAAUAUUACGAUUA` is above or exactly -0.1.
false

Check the entry `GUCAAGCAAUAUUACGGCGA` : does self-splicing fitness (ln) equal or exceed -0.1?
true

Tell me whether self-splicing fitness (ln) is at least -0.1 here: `UAUCAGCAAUAUUACGACCU`
true

API: above_or_equal(metric=self-splicing fitness (ln), cutoff=-0.1) for item `AAUCAGCAAUAUUACGCGUA`
true

In plain terms: is recorded self-splicing fitness (ln) at least -0.1 for `GGCAAGCAAUAUUACGGUCG` ?
true

For this sequence, is measured self-splicing fitness (ln) -0.1 or higher? `CUGCAGCAAUAUUACGAGGA`
false

Please indicate if the recorded self-splicing fitness (ln) for `AGUUAGCAAUAUUACGCCUA` meets or exceeds -0.1.
false

self-splicing fitness (ln) >= -0.1 for `ACAUAGCAAUAUUACGAUCC` ?
false

Determine whether this sequence has self-splicing fitness (ln) no lower than -0.1: `UAACAGCAAUAUUACGAGGG`
false

Decide: is the reported value of self-splicing fitness (ln) for `UUAUAGCAAUAUUACGGUUC` equal to or greater than -0.1?
false

Has `ACCGAGCAAUAUUACGAGCU` a recorded self-splicing fitness (ln) greater than or equal to -0.1?
false

Evaluate `CCGCAGCAAUAUUACGACAA` : self-splicing fitness (ln) at minimum -0.1?
false

Hi team, for `GAACAGCAAUAUUACGUCAA` , is the recorded self-splicing fitness (ln) at or above -0.1?
false
